System: 616215-338-R-J1-PDC tumor spheroids, viability;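 further: spheroids exposed to agents for 7 days before readout; percent viability relative to DMSO vehicle control wells taken as 100%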
test-summary: Anticancer human tumor 616215-338-R-J1-PDC patient-derived colon adenocarcinoma cell line growth inhibition [GQUAD]
setup-conditions: second compound 0.1 µM; first compound 0.1 µM; stronger effect = lower value; spheroids with HUVEC and MSC
Label true (1) when viability, T/C < 70%; otherwise false (0).

query: Report whether reported viability, T/C is lower than 70% (strictly) for CC1COCCN1c1cc(C2(O)CC3CCC(C2)O3)c2cnn(-c3ccn[nH]3)c2n1 (centres undefined) + CN(C)c1ccc(Nc2c3ccc(NC(=O)CCN4CCCC4)cc3nc3cc(NC(=O)CCN4CCCC4)ccc23)cc1
result: false (0)

query: Report whether reported viability, T/C is lower than 70% (strictly) for COc1ccc([C@@H](O)c2cc(-c3ncnc4cc(N5CCOCC5)ccc34)c(F)cc2Cl)nn1 + Cc1[nH]c2ccc(F)cc2c1-c1nc2c3cccnc3c3ncccc3c2[nH]1
result: false (0)

Source listed as PubChem BioAssay AID2060493.
